Reference for the values: patent US20250154261A1

- measuredTarget: Human CD33 R69G (human, UniProt P20138 18-259)
- Sequence (P20138 18-259 R69G): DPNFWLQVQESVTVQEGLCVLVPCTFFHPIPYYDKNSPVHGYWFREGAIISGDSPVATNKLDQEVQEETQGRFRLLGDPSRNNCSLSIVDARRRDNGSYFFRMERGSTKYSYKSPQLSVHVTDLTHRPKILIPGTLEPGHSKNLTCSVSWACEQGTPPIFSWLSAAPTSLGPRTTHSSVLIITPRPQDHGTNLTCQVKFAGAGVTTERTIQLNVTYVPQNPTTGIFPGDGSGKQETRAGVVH
- methodNotes: SPR captured Fab
Please assign a class to every record based on measured koff, with ranges bucket 1: < 0.002 s⁻¹; bucket 2: ≥ 0.002 s⁻¹ and < 0.007 s⁻¹; bucket 3: ≥ 0.007 s⁻¹

- binder: "ADI-11812 Fab (Fab, V domains shown, Fab fragment; also called Ab24) VH: QVQLVQSGAEVKKPGASVKVSCKASGYTFEIYYMHWVRQAPGQGLEWMGIINPSSGSTVYAQKFQGRVTMTRDTSTSTVYMELSSLRSEDTAVYYCARGAGYDDEDMDVWGKGTTVTVSS VL: DIQMTQSPSSVSASVGDRVTITCRASQGIDSWLAWYQQKPGKAPKLLIYAASSLQSGVPSRFSGSGSGTDFTLTISSLQPEDFATYYCQQAHSYPLTFGGGTKVEIK"
  className: "bucket 2"
- binder: "ADI-10164 Fab (Fab, V domains shown, Fab fragment; also called Ab18) VH: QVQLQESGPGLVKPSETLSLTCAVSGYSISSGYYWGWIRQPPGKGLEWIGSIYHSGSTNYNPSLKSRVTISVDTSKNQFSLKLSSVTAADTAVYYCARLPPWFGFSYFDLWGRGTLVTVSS VL: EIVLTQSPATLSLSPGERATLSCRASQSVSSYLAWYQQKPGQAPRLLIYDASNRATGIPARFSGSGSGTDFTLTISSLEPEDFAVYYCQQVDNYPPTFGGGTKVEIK"
  className: "bucket 3"
- binder: "ADI-11826 Fab (Fab, V domains shown, Fab fragment; also called Ab26) VH: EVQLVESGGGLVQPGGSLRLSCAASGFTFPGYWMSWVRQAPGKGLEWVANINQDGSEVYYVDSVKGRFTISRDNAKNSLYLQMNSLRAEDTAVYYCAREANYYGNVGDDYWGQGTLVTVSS VL: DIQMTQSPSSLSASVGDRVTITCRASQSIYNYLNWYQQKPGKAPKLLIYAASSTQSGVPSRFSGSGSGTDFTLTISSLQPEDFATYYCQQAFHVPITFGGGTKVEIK"
  className: "bucket 3"
- binder: "ADI-10159 Fab (Fab, V domains shown, Fab fragment; also called Ab1; G59) VH: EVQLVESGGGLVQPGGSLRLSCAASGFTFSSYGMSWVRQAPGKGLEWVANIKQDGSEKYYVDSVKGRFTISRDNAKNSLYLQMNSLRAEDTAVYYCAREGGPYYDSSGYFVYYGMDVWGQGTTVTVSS VL: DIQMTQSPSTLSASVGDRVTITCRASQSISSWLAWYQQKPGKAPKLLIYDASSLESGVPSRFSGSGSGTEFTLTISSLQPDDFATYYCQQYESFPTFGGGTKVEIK"
  className: "bucket 2"
- binder: "ADI-11807 Fab (Fab, V domains shown, Fab fragment; also called Ab5; I07) VH: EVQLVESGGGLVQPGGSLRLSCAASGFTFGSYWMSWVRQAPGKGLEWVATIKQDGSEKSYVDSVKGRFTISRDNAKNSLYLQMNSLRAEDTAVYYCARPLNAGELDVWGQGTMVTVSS VL: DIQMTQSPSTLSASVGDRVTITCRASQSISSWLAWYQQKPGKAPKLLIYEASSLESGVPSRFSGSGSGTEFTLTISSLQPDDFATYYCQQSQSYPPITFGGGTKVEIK"
  className: "bucket 1"
- binder: "ADI-10161 Fab (Fab, V domains shown, Fab fragment; also called Ab16) VH: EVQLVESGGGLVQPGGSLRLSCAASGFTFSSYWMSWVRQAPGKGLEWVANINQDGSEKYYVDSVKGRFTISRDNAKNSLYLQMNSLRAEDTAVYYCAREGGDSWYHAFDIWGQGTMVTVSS VL: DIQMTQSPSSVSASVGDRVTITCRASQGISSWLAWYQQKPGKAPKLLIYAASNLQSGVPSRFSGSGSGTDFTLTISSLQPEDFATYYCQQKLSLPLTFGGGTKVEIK"
  className: "bucket 3"
- binder: "ADI-10157 Fab (Fab, V domains shown, Fab fragment; also called Ab13) VH: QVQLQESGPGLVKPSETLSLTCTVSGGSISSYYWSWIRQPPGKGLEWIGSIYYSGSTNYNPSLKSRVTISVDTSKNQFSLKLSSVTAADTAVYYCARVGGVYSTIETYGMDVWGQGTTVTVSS VL: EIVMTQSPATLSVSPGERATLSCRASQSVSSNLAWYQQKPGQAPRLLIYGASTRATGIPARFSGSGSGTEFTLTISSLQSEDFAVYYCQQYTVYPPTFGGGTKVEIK"
  className: "bucket 3"
- binder: "ADI-11809 Fab (Fab, V domains shown, Fab fragment; also called Ab6) VH: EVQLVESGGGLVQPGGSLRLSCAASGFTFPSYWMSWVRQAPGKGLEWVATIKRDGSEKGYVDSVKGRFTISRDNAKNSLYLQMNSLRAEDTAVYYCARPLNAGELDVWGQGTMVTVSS VL: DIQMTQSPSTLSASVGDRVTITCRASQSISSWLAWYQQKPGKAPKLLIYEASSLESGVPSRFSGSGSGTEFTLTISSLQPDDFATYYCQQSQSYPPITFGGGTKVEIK"
  className: "bucket 1"
